Data origin, for the record: patent US6143766A

This section presents compounds with their documented IC50 values.
Subject Of Test: rat FPT (Rattus norvegicus, UniProt Q02293+Q04631)
Construct: made in house; host or cells: Sf9 insect cells
Measurement Notes: PFT Inhibitory Activity (protein farnesyl transferase)
Assay type: biochemical
Condition Set: HEPES buffer pH 7.4 with 5 mM potassium phosphate; 30° C., 30 minutes; read-out: IC50 (μM) Hepes + 5 mM Phosphate
Assay Readout: IC50 (µM)

| Compound | Assay Value |
| --- | --- |
| O=c1cc(-c2cccc(Cl)c2)c2ccc(OC(Cn3ccnc3)c3ccccc3)cc2o1 (stereo not shown) | 0.32 |
| Cn1cncc1C(Oc1ccc2c(c1)c(-c1cccc(Cl)c1)cc(=O)n2C)c1ccccc1 (stereo not shown) | 1.8 |
| O=c1cc(-c2ccccc2)c2ccc(OC(Cn3ccnc3)c3ccccc3)cc2o1 (stereo not shown) | 0.8 |
| Cc1ccc(-c2cc(=O)oc3cc(OC(Cn4ccnc4)c4ccccc4)ccc23)cc1 (stereo not shown) | 0.52 |
